Each recorded value in this set is attributed to ChEMBL document CHEMBL3098012.

Please provide measured CC50 at 48 h for the entries that follow.
assay: Cytotoxicity against ER-negative HEK293 cells after 48 hrs by MTT assay; format: cell-based; conditions: human
// note: answer is a bare numeric in µM

## Input What does the data say about its CC50 at 48 h? Entry: "CCCCCC(CCCCC)=C(c1ccc(OCCN2CCCCCC2)cc1)c1ccc(OCCN2CCCCCC2)cc1"
## Output 14.5

## Input What does the data say about its CC50 at 48 h? Entry: "c1cc(C2(c3ccc(OCCN4CCCCCC4)cc3)CCCCC2)ccc1OCCN1CCCCCC1"
## Output 17.5

## Input What does the data say about its CC50 at 48 h? Entry: "CCC=C(c1ccc(OCCN2CCCCCC2)cc1)c1ccc(OCCN2CCCCCC2)cc1"
## Output 26.7

## Input What does the data say about its CC50 at 48 h? Entry: "CC(O)(c1ccc(OCCN2CCCCCC2)cc1)c1ccc(OCCN2CCCCCC2)cc1"
## Output 22.7

## Input What does the data say about its CC50 at 48 h? Entry: "CCC(CC)=C(c1ccc(OCCN2CCCCCC2)cc1)c1ccc(OCCN2CCCCCC2)cc1"
## Output 6.02

## Input What does the data say about its CC50 at 48 h? Entry: "c1ccc(Cc2ccc(OCCN3CCCCCC3)cc2)cc1"
## Output 27

====

Please provide measured pIC50 for the entries that follow.
target: Proteasome Macropain subunit MB1 (Homo sapiens, UniProt P28074); experiment: Inhibition of chymotrypsin-like activity of human 20S proteasome beta 5 subunit assessed as hydrolysis of succinyl-LLVY-AMC fluorogenic substrate measured for 1 hr by fluorometric analysis
Sequence (P28074 whole entry): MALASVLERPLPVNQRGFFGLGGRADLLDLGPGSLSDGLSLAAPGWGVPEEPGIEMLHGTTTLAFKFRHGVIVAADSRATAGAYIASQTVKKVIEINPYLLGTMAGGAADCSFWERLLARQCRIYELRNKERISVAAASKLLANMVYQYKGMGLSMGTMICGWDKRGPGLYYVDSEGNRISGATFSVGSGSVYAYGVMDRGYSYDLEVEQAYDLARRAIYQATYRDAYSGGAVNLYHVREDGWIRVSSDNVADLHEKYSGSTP
Please treat pIC50 as minus the base-10 logarithm of the molar concentration.

## Input What does the data say about its pIC50? Entry: "CC(c1ccc(OCCN2CCCCCC2)cc1)c1ccc(OCCN2CCCCCC2)cc1"
## Output 6.10

## Input What does the data say about its pIC50? Entry: "CCC(CC)=C(c1ccc(OCCN2CCCCCC2)cc1)c1ccc(OCCN2CCCCCC2)cc1"
## Output 5.80

## Input What does the data say about its pIC50? Entry: "CCC(=C(c1ccc(OCCN2CCOCC2)cc1)c1ccc(OCCN2CCOCC2)cc1)c1ccccc1"
## Output 5.14

## Input What does the data say about its pIC50? Entry: "CCCC(=C(c1ccc(OCCN2CCCCCC2)cc1)c1ccc(OCCN2CCCCCC2)cc1)c1ccccc1"
## Output 5.86

## Input What does the data say about its pIC50? Entry: "CCC(=C(c1ccc(OCCN2CCCC2)cc1)c1ccc(OCCN2CCCC2)cc1)c1ccccc1"
## Output 5.18

## Input What does the data say about its pIC50? Entry: "CC(C)=C(c1ccc(OCCN2CCCCCC2)cc1)c1ccc(OCCN2CCCCCC2)cc1"
## Output 5.78

## Input What does the data say about its pIC50? Entry: "CC(O)(c1ccc(OCCN2CCCCCC2)cc1)c1ccc(OCCN2CCCCCC2)cc1"
## Output 5.78

====

target: Proteasome Macropain subunit MB1 (Homo sapiens); assay: Inhibition of chymotrypsin-like activity of human 20S proteasome beta 5 subunit assessed as hydrolysis of succinyl-LLVY-AMC fluorogenic substrate measured for 1 hr by fluorometric analysis
measured-attribute: IC50 (nM)
// note: answer is a bare numeric in nM

## Input What does the data say about its IC50? Entry: "c1cc(C(=C2CCCC2)c2ccc(OCCN3CCCCCC3)cc2)ccc1OCCN1CCCCCC1"
## Output 2700

## Input What does the data say about its IC50? Entry: "CC(=C(c1ccc(OCCN2CCCCCC2)cc1)c1ccc(OCCN2CCCCCC2)cc1)c1ccccc1"
## Output 900

## Input What does the data say about its IC50? Entry: "C=C(c1ccc(OCCN2CCCCCC2)cc1)c1ccc(OCCN2CCCCCC2)cc1"
## Output 1040

## Input What does the data say about its IC50? Entry: "CCC(=C(c1ccc(OCCN(C)C)cc1)c1ccc(OCCN(C)C)cc1)c1ccccc1"
## Output 3360

## Input What does the data say about its IC50? Entry: "CCC=C(c1ccc(OCCN2CCCCCC2)cc1)c1ccc(OCCN2CCCCCC2)cc1"
## Output 1460

====

assay: Cytotoxicity against ER-negative HEK293 cells after 48 hrs by MTT assay; assay type: cell-based; details: human
Response field label: string, one of label 1 (CC50 at 48 h strictly below 10 µM) or label 0.

## Input Record "c1cc(C(=C2CCCCC2)c2ccc(OCCN3CCCCCC3)cc2)ccc1OCCN1CCCCCC1" : is its CC50 at 48 h strictly below 10 µM?
## Output label 0

## Input Record "O=C(c1ccc(OCCN2CCCCCC2)cc1)c1ccc(OCCN2CCCCCC2)cc1" : is its CC50 at 48 h strictly below 10 µM?
## Output label 0

## Input Record "CCCC(=C(c1ccc(OCCN2CCCCCC2)cc1)c1ccc(OCCN2CCCCCC2)cc1)c1ccccc1" : is its CC50 at 48 h strictly below 10 µM?
## Output label 0

## Input Record "c1cc(OCCN2CCCCCC2)ccc1Cc1ccc(OCCN2CCCCCC2)cc1" : is its CC50 at 48 h strictly below 10 µM?
## Output label 0

## Input Record "c1cc(C(=C2CCCC2)c2ccc(OCCN3CCCCCC3)cc2)ccc1OCCN1CCCCCC1" : is its CC50 at 48 h strictly below 10 µM?
## Output label 0

## Input Record "C(=C(c1ccc(OCCN2CCCCCC2)cc1)c1ccc(OCCN2CCCCCC2)cc1)c1ccccc1" : is its CC50 at 48 h strictly below 10 µM?
## Output label 1

## Input Record "CCC(=C(c1ccc(OCCN2CCCCCC2)cc1)c1ccc(OCCN2CCCCCC2)cc1)c1ccccc1" : is its CC50 at 48 h strictly below 10 µM?
## Output label 1

## Input Record "CC(=C(c1ccc(OCCN2CCCCCC2)cc1)c1ccc(OCCN2CCCCCC2)cc1)c1ccccc1" : is its CC50 at 48 h strictly below 10 µM?
## Output label 0

## Input Record "CC(c1ccc(OCCN2CCCCCC2)cc1)c1ccc(OCCN2CCCCCC2)cc1" : is its CC50 at 48 h strictly below 10 µM?
## Output label 1

====

assay: Cytotoxicity against ER-negative HEK293 cells after 48 hrs by MTT assay; assay type: cell-based; conditions: human
measured-attribute: CC50 at 48 h (µM)
// note: answer is a bare numeric in µM

## Input What does the data say about its CC50 at 48 h? Entry: "C=C(c1ccc(OCCN2CCCCCC2)cc1)c1ccc(OCCN2CCCCCC2)cc1"
## Output 9.8

## Input What does the data say about its CC50 at 48 h? Entry: "CC(C)(c1ccc(OCCN2CCCCCC2)cc1)c1ccc(OCCN2CCCCCC2)cc1"
## Output 7.61

## Input What does the data say about its CC50 at 48 h? Entry: "c1ccc(C(=C(c2ccc(OCCN3CCCCCC3)cc2)c2ccc(OCCN3CCCCCC3)cc2)c2ccccc2)cc1"
## Output 23.2

## Input What does the data say about its CC50 at 48 h? Entry: "CC(C)=C(c1ccc(OCCN2CCCCCC2)cc1)c1ccc(OCCN2CCCCCC2)cc1"
## Output 11.1

====

Please provide measured IC50 for the entries that follow.
biological target: Proteasome Macropain subunit MB1 (Homo sapiens); assay: Inhibition of chymotrypsin-like activity of human 20S proteasome beta 5 subunit assessed as hydrolysis of succinyl-LLVY-AMC fluorogenic substrate measured for 1 hr by fluorometric analysis
// note: answer is a bare numeric in µM

## Input Entry "c1cc(C2(c3ccc(OCCN4CCCCCC4)cc3)CCCCC2)ccc1OCCN1CCCCCC1" , system Proteasome Macropain subunit MB1 (Homo sapiens): what IC50 was measured?
## Output 1.94

## Input Entry "CCCC(CCC)=C(c1ccc(OCCN2CCCCCC2)cc1)c1ccc(OCCN2CCCCCC2)cc1" , system Proteasome Macropain subunit MB1 (Homo sapiens): what IC50 was measured?
## Output 3.38

## Input Entry "C(=C(c1ccc(OCCN2CCCCCC2)cc1)c1ccc(OCCN2CCCCCC2)cc1)c1ccccc1" , system Proteasome Macropain subunit MB1 (Homo sapiens): what IC50 was measured?
## Output 0.58

## Input Entry "c1cc(OCCN2CCCCCC2)ccc1Cc1ccc(OCCN2CCCCCC2)cc1" , system Proteasome Macropain subunit MB1 (Homo sapiens): what IC50 was measured?
## Output 0.67

====

molecular target: Proteasome Macropain subunit MB1 (Homo sapiens); experiment: Inhibition of chymotrypsin-like activity of human 20S proteasome beta 5 subunit assessed as hydrolysis of succinyl-LLVY-AMC fluorogenic substrate measured for 1 hr by fluorometric analysis
Response field label: string, one of rule met (IC50 strictly below 2000 nM) or rule not met.

## Input Record "CC(C)(c1ccc(OCCN2CCCCCC2)cc1)c1ccc(OCCN2CCCCCC2)cc1" : is its IC50 strictly below 2000 nM?
## Output rule met

## Input Record "c1cc(C(=C2CCCCC2)c2ccc(OCCN3CCCCCC3)cc2)ccc1OCCN1CCCCCC1" : is its IC50 strictly below 2000 nM?
## Output rule not met

## Input Record "c1ccc(Cc2ccc(OCCN3CCCCCC3)cc2)cc1" : is its IC50 strictly below 2000 nM?
## Output rule not met

## Input Record "c1ccc(C(=C(c2ccc(OCCN3CCCCCC3)cc2)c2ccc(OCCN3CCCCCC3)cc2)c2ccccc2)cc1" : is its IC50 strictly below 2000 nM?
## Output rule met

## Input Record "CCC(=C(c1ccc(OCCN2CCCCCC2)cc1)c1ccc(OCCN2CCCCCC2)cc1)c1ccccc1" : is its IC50 strictly below 2000 nM?
## Output rule met

## Input Record "CCCCCCC(CCCCCC)=C(c1ccc(OCCN2CCCCCC2)cc1)c1ccc(OCCN2CCCCCC2)cc1" : is its IC50 strictly below 2000 nM?
## Output rule not met

## Input Record "CCC(=C(c1ccc(OCCCN(C)C)cc1)c1ccc(OCCCN(C)C)cc1)c1ccccc1" : is its IC50 strictly below 2000 nM?
## Output rule not met

## Input Record "c1ccc(C(=C(c2ccc(OCCN3CCCCCC3)cc2)c2ccc(OCCN3CCCCCC3)cc2)C2CCCCC2)cc1" : is its IC50 strictly below 2000 nM?
## Output rule not met

## Input Record "O=C(c1ccc(OCCN2CCCCCC2)cc1)c1ccc(OCCN2CCCCCC2)cc1" : is its IC50 strictly below 2000 nM?
## Output rule met
